SYSTEM_UNDER_TEST: PRMT8 (Homo sapiens)
Sequence (Q9NR22 whole entry, species assumed): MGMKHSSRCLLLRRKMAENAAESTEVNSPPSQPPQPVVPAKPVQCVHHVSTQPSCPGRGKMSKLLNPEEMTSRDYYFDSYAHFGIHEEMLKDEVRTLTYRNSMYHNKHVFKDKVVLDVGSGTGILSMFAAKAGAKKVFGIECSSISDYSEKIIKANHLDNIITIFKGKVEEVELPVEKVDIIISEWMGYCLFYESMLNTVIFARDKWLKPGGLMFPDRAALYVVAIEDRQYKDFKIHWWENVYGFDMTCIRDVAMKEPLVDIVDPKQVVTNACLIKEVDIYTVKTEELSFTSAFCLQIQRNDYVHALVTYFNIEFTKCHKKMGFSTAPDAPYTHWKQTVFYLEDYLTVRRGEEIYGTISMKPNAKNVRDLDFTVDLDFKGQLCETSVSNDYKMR
ASSAY_OVERVIEW: Cell-free PRMT enzyme activity assay, PRMT8
Assay type: biochemical
PARTICULARS: cell-free assay; read-out: PRMT8 inhibition IC50
MEASURED_PARAMETER: IC50

Look up IC50 for this molecule: CC(N)C(=O)OC(C)(C)Cc1ccc(Cl)cc1 (stereo not shown) [A03, alaproclate]
~125 nM

###

Test system: SirT1 levels in N2a-E4 cells
ASSAY_OVERVIEW: SirT1 levels by AlphaLISA in ApoE4-transfected N2a cells
Assay type: cell-based, murine
MEASURED_PARAMETER: SirT1 SμM

Here's what some known entries look like.
[
  {
    "COMPOUND": "CC(C)(Cc1ccc(Cl)cc1)OC(=O)C(N)CCCCN (stereo not drawn)",
    "MEASURED_PARAMETER": "SirT1 SμM",
    "REPORTED": "A (A >20%)"
  },
  {
    "COMPOUND": "C[C@H](NC(=O)OC(C)(C)C)C(=O)NC(C)(C)Cc1ccc(C(F)(F)F)cc1",
    "MEASURED_PARAMETER": "SirT1 SμM",
    "REPORTED": "a, a (a <250%)"
  },
  {
    "COMPOUND": "C[C@H](N)C(=O)N[C@H]1CCCCNC1=O.Cl (racemic)",
    "MEASURED_PARAMETER": "SirT1 SμM",
    "REPORTED": "a, a (a <250%)"
  },
  {
    "COMPOUND": "CC(C)(Cc1ccc(Cl)cc1)OC(=O)C(N)CO (stereo not drawn)",
    "MEASURED_PARAMETER": "SirT1 SμM",
    "REPORTED": "A, A (A >20%)"
  },
  {
    "COMPOUND": "C[C@H](NC(=O)OC(C)(C)C)C(=O)O[C@H]1CCC[C@@H]1c1ccc(Cl)cc1 (single isomer, unassigned) [MP-88]",
    "MEASURED_PARAMETER": "SirT1 SμM",
    "REPORTED": "a, a (a <250%)"
  }
]

Please go through the list and note SirT1 SμM for each compound.
1. C[C@H](N)C(=O)Nc1ccccc1-c1ccc(F)cc1
2. C[C@H](N)C(=O)O[C@@H]1CCC[C@H]1c1ccc(Cl)cc1.Cl [MP-89]
3. CC(C)(Cc1ccc(Cl)cc1)OC(=O)C(N)Cc1ccccc1 (stereo not drawn)
4. C[C@H](N)C(=O)NC(C)(C)Cc1ccc(F)cc1.Cl

1. A (A >20%)
2. a (a <250%)
3. A, A (A >20%)
4. a (a <250%)
